All figures here come from patent US20240376090A1.

Task for the reader: assign each of the following compounds its reported pKi.
# target_under_test: 5-HT2A receptor (Homo sapiens (Human), UniProt P28223)
# Sequence (P28223 whole entry): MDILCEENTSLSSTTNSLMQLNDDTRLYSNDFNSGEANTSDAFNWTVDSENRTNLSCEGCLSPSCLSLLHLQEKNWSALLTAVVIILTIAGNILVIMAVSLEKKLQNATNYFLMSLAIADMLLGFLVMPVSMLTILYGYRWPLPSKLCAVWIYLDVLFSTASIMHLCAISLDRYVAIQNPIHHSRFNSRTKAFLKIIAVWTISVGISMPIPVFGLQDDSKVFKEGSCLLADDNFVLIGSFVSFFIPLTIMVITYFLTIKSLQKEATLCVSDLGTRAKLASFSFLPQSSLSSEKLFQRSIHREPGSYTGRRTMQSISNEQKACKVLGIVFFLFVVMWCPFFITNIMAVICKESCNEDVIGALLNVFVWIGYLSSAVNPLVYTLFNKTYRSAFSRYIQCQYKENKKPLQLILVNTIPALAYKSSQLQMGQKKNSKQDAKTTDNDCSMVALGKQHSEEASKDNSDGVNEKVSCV
# experiment_notes: Radioligand binding assay ([3H]5-HT competition), 5-HT2A
# reported_conditions: [3H]5-HT radioligand, membranes of HEK293 cells expressing recombinant 5-HT2A; Ki from IC50 by Cheng-Prusoff; read-out: 5-HT2A serotonin binding Ki value
One number for each entry, as −log10 of the molar value.

Examples from the recorded data:
- compound: "Cc1ncsc1C(=O)Nc1ccc(OC[C@H]2CCCCN2)c(-c2c(C)noc2C)c1 [Compound 193]"
  target_under_test: "5-HT2A receptor (Homo sapiens (Human), UniProt P28223)"
  test_value: 8.57
- compound: "CC(=N)NCCOc1ccc(NC(=O)C2CC2)cc1-c1c(C)noc1C [Compound 198]"
  target_under_test: "5-HT2A receptor (Homo sapiens (Human), UniProt P28223)"
  test_value: 8.27
- compound: "Cc1noc(C)c1-c1cc(NC(=O)[C@@H]2C[C@@H]2F)ccc1OC[C@H]1CCCCN1 [Compound 192]"
  target_under_test: "5-HT2A receptor (Homo sapiens (Human), UniProt P28223)"
  test_value: 8.31
- compound: "Cc1noc(C)c1-c1cc(NC(=O)c2ncnn2C)ccc1OC[C@H]1CCCCN1 [Compound 212]"
  target_under_test: "5-HT2A receptor (Homo sapiens (Human), UniProt P28223)"
  test_value: 7.41

Report pKi for each item below.
1. CCOC1CC1C(=O)Nc1ccc(OCCN2CCC2)c(-c2c(C)noc2C)c1 (stereo not shown) [Compound 131]
2. Cc1noc(C)c1-c1cc(NC(=O)C2CC2)ccc1OC1CN(C)C1 [Compound 132]
3. Cc1nc(C(=O)Nc2ccc(OC[C@H]3CCCCN3)c(-c3c(C)noc3C)c2)c(C)s1 [Compound 210]
4. Cc1noc(C)c1-c1cc(NC(=O)c2cc(F)ccn2)ccc1OCCN1CCCC1 [Compound 104]

1. 7.11
2. 7.34
3. 7.06
4. 7.71

Please give pKi, item by item, for the list that follows.
1. Cc1noc(C)c1-c1cc(NC(=O)C2CC2)ccc1OCCN1CC[C@H](O)C1 [Compound 147]
2. Cc1noc(C)c1-c1cc(NC(=O)C2CC2)ccc1OCCN1CCOC(=O)CC1 [Compound 137]

1. 7.60
2. 6.26

Give pKi for each of the items listed below.
1. COCCNCCOc1ccc(NC(=O)C2CC2)cc1-c1c(C)noc1C [Compound 197]
2. Cc1noc(C)c1-c1cc(NC(=O)c2cccn2C)ccc1OC[C@H]1CCCCN1 [Compound 189]
3. Cc1noc(C)c1-c1cc(NC(=O)c2c(F)cnn2C)ccc1OCCN1CCOCC1 [Compound 134]
4. Cc1ncsc1CC(=O)Nc1ccc(OC[C@H]2CCCCN2)c(-c2c(C)noc2C)c1 [Compound 225]

1: 8.97; 2: 8.41; 3: 8.23; 4: 8.50

---

# target_under_test: 5-HT2A receptor (Homo sapiens (Human), UniProt P28223)
# experiment_notes: Radioligand binding assay ([3H]5-HT competition), 5-HT2A
# reported_conditions: [3H]5-HT radioligand, membranes of HEK293 cells expressing recombinant 5-HT2A; Ki from IC50 by Cheng-Prusoff; read-out: 5-HT2A serotonin binding Ki value
Labels assigned by Ki range: one: < 10 nM; two: ≥ 10 nM and < 20 nM; three: ≥ 20 nM

Recorded results for 6 molecules are shown here.
- molecule: "Cc1noc(C)c1-c1cc(NC(=O)c2ccccc2)ccc1OC1CNC1 [Compound 241]"
  qualitative_label: "one"
- molecule: "Cc1noc(C)c1-c1cc(NC(=O)c2ccncc2F)ccc1OCCN1CCCC1 [Compound 103]"
  qualitative_label: "three"
- molecule: "Cc1noc(C)c1-c1cc(NC(=O)C2CC2)ccc1OC[C@H]1COCCN1 [Compound 173]"
  qualitative_label: "three"
- molecule: "Cc1noc(C)c1-c1cc(NC(=O)C2CC2)ccc1OCC1CCN1 (centres unmarked) [Compound 174]"
  qualitative_label: "three"
- molecule: "Cc1noc(C)c1-c1cc(NC(=O)c2ccncc2)ccc1OCCN1CCCC1 [Compound 102]"
  qualitative_label: "three"
- molecule: "Cc1cnsc1C(=O)Nc1ccc(OC[C@H]2CCCCN2)c(-c2c(C)noc2C)c1 [Compound 214]"
  qualitative_label: "one"

Which band does Cc1noc(C)c1-c1cc(NC(=O)Cc2cccc(F)c2)ccc1OCCN1CCC1 [Compound 125] fall in? one

Class label required: Cc1ncoc1C(=O)Nc1ccc(OCCN2CCCC2)c(-c2c(C)noc2C)c1 [Compound 112] two

Which class does Cc1noc(C)c1-c1cc(NC(=O)C2CC2)ccc1OCCN1CCC2(CCOC2=O)CC1 [Compound 142] fall in? three
